protocolDescription: Metabolic stability, human liver microsomes
Format: in vitro ADME
conditionParameters: CSV, order h/r/m as in the tables
experimentalEndpoint: Microsomal Stability, first value (human)

COc1cc2c(cc1OCc1ccccc1)N(C(=O)[C@H](N)Cc1ccccc1)CC21CCN(C)CC1 [Compound 47] : 75.2
COc1cc2c(cc1OCc1ccccc1)N(C(=O)c1cc3ccccc3[nH]1)CC21CCNCC1 [Compound 11] : < 10.4
COc1cc2c(cc1OCc1cccc(F)c1)N(C(=O)c1cc3ccccc3[nH]1)CC21CCN(C)CC1 [Compound 36] : < 10.4
COc1ccc2[nH]c(C(=O)N3CC4(CCN(C)CC4)c4cc(OC)c(OCc5ccccc5)cc43)cc2c1 [Compound 42] : < 10.4
COc1cc2c(cc1OCc1ccccc1)N(c1ccncc1)CC21CCN(C)CC1 [Compound 50] : < 10.4
COc1cc2c(cc1OCc1ccccc1)N(C(=O)c1cc3ccccc3[nH]1)CC21CCN(C)CC1 [Compound 2] : < 10.4
COc1cc2c(cc1OCc1ccccc1)N(C(=O)c1cc3cc(F)ccc3[nH]1)CC21CCN(C)CC1 [Compound 41] : < 10.4
COc1cc2c(cc1OCc1ccccc1)N(C(=O)c1cc3cnccc3[nH]1)CC21CCN(C)CC1 [Compound 43] : 16.5
